Each entry below carries its reported cytotoxicity at 10 µM.
- EXPERIMENT NOTES: Toxicity liver stage against HepG2, at 10uM
- Assay type: cell-based
- Set-up: test concentration 10 uM, cell line HepG2-A16-CD81EGFP
- ASSAY CONDITIONS: human, HepG2-A16-CD81EGFP cells; read-out: INHIBITION

# COMPOUND, cytotoxicity at 10 µM [%]
rows = [
    ("CN1CCC(N(C)CCC(=O)N2CCC(CCc3ccccc3)CC2)C1 (stereo not given)", -5.87),
    ("Cc1nn(C)cc1CN1CCc2nc(-c3cccnc3)nc(O)c2C1", 22.5),
    ("COCc1nc(C)cc(Nc2ccc3c(c2)CC(=O)N3)n1", 1.41),
    ("COc1ccc2c(c1)CCCN2C(=O)NC1CCCCNC1=O (stereo not given)", -139),
    ("Cc1cc(C(=O)N2CCCCC2C)ccc1NCC(=O)N1CCOCC1 (stereo not given)", 4.08),
    ("O=S(=O)(Cc1nc(C2CC2)no1)c1ccccc1F", 8.11),
    ("Cc1ncc(CN2CCC(c3nc4cc(Cl)ccc4o3)CC2)s1", 51.7),
    ("CCCNc1nnc(S(=O)(=O)CCOCC)s1", 5.96),
    ("CCc1ccc(CN2CCN(C)c3ncccc3C2)o1", 3.78),
    ("Cc1nc(N2CCN(C(=O)c3ccco3)CC2)c2c(n1)c(C)nn2C", 12.1),
    ("Cc1nc(C2CCCN(C(=O)c3ccc(N4CCCC4)nn3)C2)no1 (stereo not given)", -13.6),
    ("CCc1nc2n(n1)CCCC2NC(=O)Nc1cccc(F)c1F (stereo not given)", 2.39),
    ("COc1ccccc1C(=O)N1CCN(C(=O)CCCc2cn[nH]c2)CC1", 2.68),
    ("CN(C)C(=O)c1ccc2c(c1)N(C)C(CC(=O)NCc1ncc[nH]1)CO2 (stereo not given)", -5.93),
    ("CC1(c2ncc(CN3CCN(c4ccccn4)CC3)cn2)CCCCO1 (stereo not given)", 2.68),
    ("CCn1cc(N)c(-c2nnc3n2CCC3)n1", -12.1),
    ("Cc1ccc(OCC(=O)NS(=O)(=O)c2cccnc2)cc1C", 4.36),
    ("Cc1nccn1C1CCCN(C(=O)CCc2nc(C(C)C)no2)C1 (stereo not given)", -6.27),
    ("Cc1noc([C@@]23CCO[C@@H]2CCN(C(=O)c2c(C)noc2C)C3)n1", 8.4),
    ("CN(Cc1ncnn1C)C(=O)Nc1ccc(OC(F)F)cc1", -0.778),
    ("O=C(CCc1nccs1)N1CCC(N2CCNC2=O)CC1", -9.86),
    ("CNc1nc(C)c(C(=O)N2CCCCC2CCN2CCOCC2)s1 (stereo not given)", -2.06),
    ("CC(C)Cc1noc(CN(C)C2CCCC2)n1", 0.274),
    ("CCCn1nnnc1CN(c1ccc(N2CCOCC2)cc1)C(C)C", 6.8),
    ("CC(C)CN(Cc1ccccn1)Cc1ccccc1OCC(=O)O", -12.7),
]

* * *

- EXPERIMENT NOTES: Toxicity liver stage against HepG2, at 10uM
- Type: cell-based
- Parameters: test concentration 10 uM, cell line HepG2-A16-CD81EGFP
- ASSAY CONDITIONS: human, HepG2-A16-CD81EGFP cells; read-out: INHIBITION
Each entry below carries its reported cytotoxicity at 10 µM.
RECORDED ENDPOINT: cytotoxicity at 10 µM (%)

# COMPOUND, UNIT OF MEASUREMENT, REPORTED RESULT
data = [
    ("COc1nc2c(cc1C(=O)NC(C)Cc1cc(C)n[nH]1)CCC2 (configuration not stated)", "%", -137),
    ("CN1CCNC(=O)C1CC(=O)NCCc1cnn(-c2ccccc2)c1 (configuration not stated)", "%", 2.53),
    ("CCN(C(C)=O)C1CCN(c2nccc(CCC(F)(F)F)n2)C1 (configuration not stated)", "%", -4.39),
    ("Cc1nccn1CC1CCCN1S(=O)(=O)Cc1ccon1 (configuration not stated)", "%", -9.57),
    ("COCC(C)NC(=O)c1cc(C)n(-c2cccc(OC)c2)c1C (configuration not stated)", "%", -13.9),
    ("O=C(Cc1cccc(O)c1)NC1CCN(c2cccc(Cl)c2)C1 (configuration not stated)", "%", 17.1),
    ("CCC(=O)N1CCCC1C(=O)N1CCC(Cc2ccc(F)cc2)CC1 (configuration not stated)", "%", -0.0726),
    ("CCc1ccc(C2COCCN2C(=O)Nc2cccc(C(C)=O)c2)o1 (configuration not stated)", "%", -7.13),
    ("COCC(=O)N1CCC(c2nc3ccc(N4CCCC4)cn3n2)CC1", "%", -15.4),
    ("CC(C)(NC(=O)Nc1cnn(CC2CCCO2)c1)c1nccs1 (configuration not stated)", "%", -2.64),
    ("O=C(c1cc[nH]n1)N1CCOCC2(C1)CN(c1ccccc1)C(=O)CO2 (configuration not stated)", "%", -4.96),
    ("COc1cc(CNc2ccc(C)c(Cl)c2)ccc1OCC(N)=O", "%", 7.1),
    ("Cn1nc(C(=O)NC2(c3ccccc3)CCC2)ccc1=O", "%", 1.42),
    ("Cc1nc(CN2CCN(C(=O)CC(C)(C)c3ccccc3)CC2)no1", "%", -1.96),
    ("COc1ccc(CN2CCn3cccc3C2C)cc1F (configuration not stated)", "%", -2.63),
    ("CSCc1noc(CNC(=O)[C@H]2CNC[C@@H](C(=O)N3CCCC3)C2)n1", "%", 2.79),
    ("CSCC(=O)N1CCCN(Cc2cscn2)CC1", "%", -5.28),
    ("OCCN(Cc1ccno1)Cc1cc(Br)ccc1F", "%", 6),
    ("Cc1c[nH]c(C2CCCN(C(=O)CCc3c(C)n[nH]c3C)C2)n1 (configuration not stated)", "%", 4.88),
    ("CCN(c1ccc(C(=O)NCCCN2CCOCC2)cc1)S(=O)(=O)CC", "%", 1.34),
    ("Cc1ccc(-c2cnnc(NCC3CCOCC3)n2)o1", "%", -3.64),
    ("COCC[C@]1(O)CCN(c2ncc(Cl)cc2F)C[C@H]1C", "%", 12.8),
    ("COc1cccc(CNCC2(COc3cccnc3)C[C@@H](O)[C@@H](O)C2)c1 (some centres not stated)", "%", -5.57),
    ("CN1CCN(C(=O)CCCc2ccccn2)c2ccc(F)cc21", "%", 1.66),
    ("CS(=O)(=O)N1C[C@H]2CCCN(Cc3nccs3)[C@H]2C1", "%", -1.65),
    ("CCOc1ccc(C(=O)Nc2c(C)nc3ccccn3c2=O)cc1", "%", 11.9),
    ("O=C([C@H]1CC[C@@H]2[C@@H](CCN2C2CCOCC2)O1)N1CCOCC1", "%", -0.824),
    ("CN(Cc1ccc(CCC(C)(C)O)cc1)Cc1cccc(O)c1", "%", -7.43),
    ("CC(C)(CO)Nc1c(NCc2ccccc2)c(=O)c1=O", "%", -2.96),
    ("CSc1ccc(CNC(=O)Cc2c(C)n[nH]c2C)cc1", "%", 4.16),
    ("O=C(c1ccc[nH]1)N1CCN(CC2CCOc3ccccc3C2)CC1 (configuration not stated)", "%", 4.03),
    ("COCCN(Cc1ccoc1)C(=O)c1cccnc1SC", "%", 12.4),
    ("CC(C)c1cc(NCC(O)c2ccc(F)cc2)n2nccc2n1 (configuration not stated)", "%", 0.255),
    ("CC(C)NC(=O)N1CCC2(CC(=O)N(c3ccsc3)C2)C1 (configuration not stated)", "%", -7.99),
    ("COc1ccc2nc(C3CC3)cc(C(=O)NCCc3nnc[nH]3)c2c1", "%", 0.867),
    ("c1ccc(CO[C@@H]2C[C@H]3CN(c4ncccn4)CCN3C2)nc1", "%", -7.49),
    ("Cc1cccc(N2CCC3(CCN(C(=O)c4cccnc4)CC3)C2)n1", "%", -0.482),
    ("Cc1cc(CN2CCCCC2Cn2cncn2)no1 (configuration not stated)", "%", -8.89),
    ("CN(C)C(=O)c1cnc2n1CCN(Cc1ccsc1)C2", "%", -68),
    ("Cc1nc(-c2ccc(Cl)cc2)n(CC(=O)NC(C)C)c(=O)c1CCO", "%", -8.88),
    ("C[C@H]1C[C@H]2CN(C(=O)CC3CC3)CC[C@H]2O1", "%", -67.8),
    ("Cc1cc(CN2CCN(C(=O)NC(C)c3ccncc3)CC2)on1 (configuration not stated)", "%", -5.66),
    ("Cc1ccc2c(c1C)OCC2NCc1ccc(C#N)cc1 (configuration not stated)", "%", 25.8),
    ("CCN(Cc1ccncc1)C(=O)c1cn(CC2CCCNC2)nn1 (configuration not stated)", "%", 5.35),
    ("CCC(C)N1CCC2(CC1)CN(c1cncnc1)C(=O)CO2 (configuration not stated)", "%", -0.414),
    ("Cn1nc2c(cc1=O)CN(Cc1nc(-c3ccoc3)no1)CC2", "%", 7.72),
    ("c1ccc(NCc2cnc3n2CCN(C2CCOC2)CC3)nc1 (configuration not stated)", "%", -70.5),
]
